- method_notes: qHTS assay to identify small molecule antagonists of the androgen receptor (AR) signaling pathway - cell viability counter screen (AID 743033; note: nearly all actives have a fitted effect of over 45% in size)
- setup_conditions: AR-bla HEK293 viability, CellTiter-Glo luminescence, 16 h; series mostly up to 58.5 µM
Records with an inconclusive call do not appear. Active and inactive are the calls of the source. Calls come from the whole dose curve; as a rule, active = well fitted cell-killing curve with a large enough effect in the repeat runs; inconclusive = weak or mixed curves; inactive = no such curve, though single readings can be large or run the other way.
Hello, when you answer, please use one of the following outcomes: active, inactive

Reference set, count: 2
compound=Cc1ccc(/C(=C\CN2CCCC2)c2cccc(/C=C/C(=O)O)n2)cc1 label=inactive
compound=CC(=O)OCC(=O)[C@@]1(O)[C@H](C)C[C@H]2[C@@H]3C[C@H](F)C4=CC(=O)C=C[C@]4(C)[C@H]3[C@@H](O)C[C@@]21C label=inactive

Lookup: For `C=C1C(=O)O[C@H]2[C@H]1CC/C(C)=C\CC[C@@]1(C)O[C@@H]21` , what call appears in the results of this test?
Found: active

Lookup: For OC[C@H]1OC([S-])[C@H](O)[C@@H](O)[C@@H]1O.[Au+] (stereo not given in full) , what call appears in the results of this test?
Found: inactive

Lookup: For `CCc1ccc(S(=O)(=O)O)cc1` , what call appears in the results of this test?
Found: inactive
